Catalogue of protein stability index values
Protocol Text: protein stability index of a GFP-peptide fusion (yeast GPS) (PSI 1-4); higher = more stable; sorted into four equal gates, so the index is relative within each strain
Experimental Setup: ubr1∆
Give the figure by itself; no unit, no explanation.

These recorded examples may help you get a feel for the data.
NDIPQTESPLKTVDSSI [SSN2] : 3.03
ESLILKWDNQSASRAKN [RGR1] : 3.09
KPGSIDAISQVINIAKA [FAS1] : 2.95

### Prompt Using the record for MSAAPVQDKDTLSNAER [GAL11] , report its protein stability index.
### Response 3.04

### Prompt Would you kindly repeat that for NFLDNCLFENDLQRLKP [ITC1] ?
### Response 3.06

###

Recorded protein stability index by entry
Protocol Text: protein stability index of a GFP-peptide fusion (yeast GPS) (PSI 1-4); higher = more stable; sorted into four equal gates, so the index is relative within each strain
Experimental Setup: doa10∆
Respond numerically, and do not add a unit to the figure.

Here's what some known entries look like.
SKLLYDDVTCDKLSVSE [SIN4] : 3.08
WGAETDELSMIMEHFSQ [RPS12] : 2.93
DQTNHIESDSILNLLNI [ECM29] : 3.02
EEAKEESDDDMGFGLFD [RPP1A] : 3.09
ISTRERDYLVDTLKLRE [RRP6] : 3.07
SNGVLNVDNQTSDLVKS [RPS17A] : 2.83

### Prompt What does the record list as protein stability index for HLPCTIEAEEAEEIGVE [RPN8] ?
### Response 1.8

### Prompt Ok, now GLSVTQKVFVRSRNGGA [DIS3]
### Response 1.46

### Prompt # iterate: ESSLTISLYFNDILDEL [ECM29]
### Response 1.89

###

Protocol Text: protein stability index of a GFP-peptide fusion (yeast GPS) (PSI 1-4); higher = more stable; sorted into four equal gates, so the index is relative within each strain
Experimental Setup: ubr1∆
Lab note: anything with protein stability index at or over 3 counts as Met; the rest go in Not met.

Reference set (3 entries):
SNGEVLEVGKNNFCALY [RPN14] : Not met
FTFGLTVVQVYDNGQVF [RPP0] : Not met
IGVLNNSSESDEEESND [RPN13] : Met

### Prompt Exam item: decide whether the reported protein stability index for SYALSMEKDKLKNLLRS [SNU114] is at least 3.
### Response Not met

### Prompt Would you mind doing IGGLIPQWKRHLEEYGY [YCS4] as well?
### Response Not met

### Prompt Another sequence: NLKYLDNSNVMTVKLES [RGR1]
### Response Not met

### Prompt Also check QDEAELVEEKTPGLTFN [RPC82]
### Response Met

###

Known protein stability index of a selection of sequences
Protocol Text: protein stability index of a GFP-peptide fusion (yeast GPS) (PSI 1-4); higher = more stable; sorted into four equal gates, so the index is relative within each strain
Experimental Setup: san1∆
The answer should be written as a number, with no unit following it.

Completed entries (count: 3):
DQPQSSEAKRTKFSNPA [BRR2] : 3.24
VNECIAQSHQRFNAKVS [CDC53] : 2.64
ENGDEDEDEDEDEDDDD [QCR6] : 1.92

### Prompt Entry under review: QSSAIGALQESVEAYLV [HHT1] . Reported protein stability index?
### Response 2.39

###

Listed sequences paired with reported protein stability index
Protocol Text: protein stability index of a GFP-peptide fusion (yeast GPS) (PSI 1-4); higher = more stable; sorted into four equal gates, so the index is relative within each strain
Experimental Setup: san1∆
Form rule: numeric answer, no unit written next to it.

Example entries and their recorded answers appear below.
QVRRDIPSAAFNFFEPI [YMR129W/POM152] : 1.96
KNGAQDLVLQILEDTAT [RRI2] : 3.33

### Prompt Tell me the measured protein stability index of KNINIGKHSQEQNSSSA [SIR4] , please.
### Response 3.29

###

Protocol Text: protein stability index of a GFP-peptide fusion (yeast GPS) (PSI 1-4); higher = more stable; sorted into four equal gates, so the index is relative within each strain
Experimental Setup: doa10∆
Decide using protein stability index: a value greater than or equal to 3 is met, a smaller one is not met.

Example entries begin here.
NSNDSVFVGSGKGTGKT [BRR2] : met
VLCLTRSSYMLELVNTP [YCG1] : not met
TEYCVGDYVAYQLNGVA [YMR129W/POM152] : not met
STQELQTRAKLLDNEIR [RPT5] : met
NIKFLSKLEGTINKAVQ [ESC2] : not met
KDDRFVPVRKFKGNNGV [RPN2] : not met
TKKTITPMGGFVHYGEI [RPL3] : met
GRKYTTLGKLSTSVGWK [RPL16B] : not met

### Prompt Does GSSRIIASDGSECIVSI [RRP42] have a reported protein stability index of at least 3?
### Response met

### Prompt Would you mind doing QSDLEIITQYVFESLEI [ARP9] as well?
### Response not met

### Prompt Entry to check: RPKPVSPPCYIIDHIPG [SNF5]
### Response not met

###

Protocol Text: protein stability index of a GFP-peptide fusion (yeast GPS) (PSI 1-4); higher = more stable; sorted into four equal gates, so the index is relative within each strain
Experimental Setup: ubr1∆
Result Type: protein stability index
Keep the answer to the number alone.

The examples below pair each entry with its known result.
VDKNFDKLELYVLRNVL [MTW1] : 3.05
RGRSVMKESVVEINSSE [ESC2] : 2.98
RLKEINGWEKYLHNVEL [ISW2] : 2.94
FGEWAGMTKSNIYNFSP [BRR2] : 2.98
STQELQTRAKLLDNEIR [RPT5] : 2.98

### Prompt Query: protein stability index; subject: MHRPVHFLQFSELAGDE [PRP8]
### Response 3.05

### Prompt Same thing, different sequence: PFLHLRKKTPAGDWKYD [FAS2]
### Response 3.08

### Prompt Same lookup for LDDNSTSLEKQINSIKK [YJL041W/NSP1] , please.
### Response 2.95

###

Protocol Text: protein stability index of a GFP-peptide fusion (yeast GPS) (PSI 1-4); higher = more stable; sorted into four equal gates, so the index is relative within each strain
Experimental Setup: ubr1∆
Result Type: protein stability index
// no unit, no text: just the number

# example entries with known answers
DILAKLFSLEKPNLNYF [SWI1] : 2.08
RTQAGDIVSIDIEEPQL [MTW1] : 3.24
NETNDKKRNPSKQNGSK [PRP28] : 3.23

### Prompt For the sequence LRAIEKNDDNSCRNPEH [YIL149C/MLP2] , what protein stability index is on record?
### Response 3.15

###

Protocol Text: protein stability index of a GFP-peptide fusion (yeast GPS) (PSI 1-4); higher = more stable; sorted into four equal gates, so the index is relative within each strain
Experimental Setup: pdr5∆
Result Type: protein stability index
Enter a number only.

Example entries begin here.
TTDDEEEPIKKLCYVLG [RET1] : 3.29
WRKSDRELTKNILWRIA [SIR4] : 1.82
LVSEARTLWPEFIPPDP [SSN8] : 2.8
LEYEISKLKKETASFIP [YIL149C/MLP2] : 2.8
RGPYLVIVPLSTLSNWS [SNF2] : 2.32

### Prompt Name the reported protein stability index value associated with the sequence VRHGRAGATTSRFIPLK [RPS15]
### Response 2.56

### Prompt Can you handle KTQLGSTMTEPVKQSFI [GAL11] next?
### Response 2.9

###

Protocol Text: protein stability index of a GFP-peptide fusion (yeast GPS) (PSI 1-4); higher = more stable; sorted into four equal gates, so the index is relative within each strain
Experimental Setup: doa10∆
Threshold check on protein stability index: at or above 3 gives t, strictly below gives f.

ASKLAAYNKKSTISARE [HTB1] : t
VDLEEVMDTIQEQITLY [SSN8] : t
IFVSILSDRANKNQDAF [ARP9] : f
LGPGIYCDPNTQEIRPV [RRP40] : f
GKTNIALLTVLKALSHH [BRR2] : f

### Prompt Identify whether the reported protein stability index of the following sequence is 3 or greater: RRTYNTLEDKFLLLAVN [ISW2]
### Response f

### Prompt Try the sequence TSCTIPKAVVDHINGSG [GAL11]
### Response f

### Prompt Subsequent entry: CTEAGLLALRERRMQVT [RPT2]
### Response f

### Prompt Next up: TRGPFHFRAPSRILYKA [RPL16B]
### Response f

### Prompt Okay, and REISNFSKGDADVLVDR [SRP72] ?
### Response t

### Prompt Next record, please: VANYSAMANAPGNNIPY [GAL11]
### Response f
